experiment: Metabolic stability in human liver microsomes assessed as remaining parent compound level at 10 uM after 3 hrs in presence of NAPDH by LC/MS analysis; type: ADME; conditions: read-out: Drug metabolism
quantity kind: remaining at 3 h, 10 µM
// unit must come after the numeric part

## Task Fill in remaining at 3 h, 10 µM for record CCCCCCCCCC(=O)Oc1ccc(/C(=C(/C)c2ccccc2)c2ccc(OCCN3CCCC3)cc2)cc1
## Result 63%

---

Target protein (sequence): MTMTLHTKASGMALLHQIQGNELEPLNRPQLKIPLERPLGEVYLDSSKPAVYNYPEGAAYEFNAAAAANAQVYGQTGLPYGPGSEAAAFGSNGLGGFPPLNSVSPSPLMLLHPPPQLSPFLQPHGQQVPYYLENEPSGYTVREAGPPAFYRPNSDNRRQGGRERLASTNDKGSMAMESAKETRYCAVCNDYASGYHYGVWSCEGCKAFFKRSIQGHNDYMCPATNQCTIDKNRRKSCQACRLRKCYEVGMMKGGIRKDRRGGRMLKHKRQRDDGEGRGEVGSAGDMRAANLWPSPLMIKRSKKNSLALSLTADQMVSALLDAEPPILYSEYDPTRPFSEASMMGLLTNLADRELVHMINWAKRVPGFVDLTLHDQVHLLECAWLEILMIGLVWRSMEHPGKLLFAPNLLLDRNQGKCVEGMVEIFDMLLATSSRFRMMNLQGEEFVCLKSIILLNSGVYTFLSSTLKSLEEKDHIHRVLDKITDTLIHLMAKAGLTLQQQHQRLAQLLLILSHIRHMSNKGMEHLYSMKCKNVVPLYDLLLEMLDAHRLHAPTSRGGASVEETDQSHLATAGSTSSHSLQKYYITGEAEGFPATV
Labelling: IC50 reported below 10 nM becomes Criterion met; at or above becomes Criterion not met.

>>> classification("CCCC(=O)Oc1ccc(/C(=C(/C)c2ccccc2)c2ccc(OCCN(C)C)cc2)cc1")
"Criterion not met"
>>> classification("CCCC(=O)Oc1ccc(/C(=C(/C)c2ccccc2)c2ccc(OCCN3CCCCC3)cc2)cc1")
"Criterion not met"
>>> classification("CCCCCCCCCC(=O)Oc1ccc(/C(=C(/C)c2ccccc2)c2ccc(OCCN3CCCCC3)cc2)cc1")
"Criterion not met"

## Task API: query returns whether the compound falls strictly under 10 nM in IC50. Query: CCCCCCCCCC(=O)Oc1ccc(/C(=C(/C)c2ccccc2)c2ccc(OCCN3CCCC3)cc2)cc1
## Result Criterion not met

---

experiment: Metabolic stability in human liver microsomes assessed as remaining parent compound level at 10 uM measured immediately after compound addition in absence of NAPDH by LC/MS analysis; format: ADME; conditions: read-out: Drug metabolism
quantity kind: remaining at 0 h, 10 µM
// unit must come after the numeric part

## Task Fill in remaining at 0 h, 10 µM for record CCCCCCCCCC(=O)Oc1ccc(/C(=C(/C)c2ccccc2)c2ccc(OCCN3CCCC3)cc2)cc1
## Result 82%

---

experiment: Metabolic stability in human liver microsomes assessed as remaining parent compound level at 10 uM after 3 hrs in absence of NAPDH by LC/MS analysis; type: ADME; details: read-out: Drug metabolism
quantity kind: remaining at 3 h, 10 µM (%)
Just the number in %, nothing appended.

## Task Fill in remaining at 3 h, 10 µM for record CCCCCCCCCC(=O)Oc1ccc(/C(=C(/C)c2ccccc2)c2ccc(OCCN3CCCC3)cc2)cc1
## Result 54

---

Reported pIC50 values for the following molecules.
tested on: MCF7; experiment: Antiproliferative activity against human MCF7 cells after 72 hrs by MTT assay; details: Homo sapiens, MCF7, 72 h
pIC50 is defined as minus the log10 of a concentration measured in mol/L.

>>> experimental_result("CC/C(=C(\\c1ccccc1)c1ccc(OCCN(C)C)cc1)c1ccccc1 [TAMOXIFEN]")
5.36

# ---- query molecule ----
## Task Fill in pIC50 for record CCC(=C(c1ccc(O)cc1)c1ccc(OCCN(C)C)cc1)c1ccccc1
## Result 5.55

---

biological target: Estrogen receptor (Homo sapiens, UniProt P03372)
quantity kind: IC50 (nM)
Just the number in nM, nothing appended.

>>> experimental_result("CCCCCCCCCC(=O)Oc1ccc(/C(=C(/C)c2ccccc2)c2ccc(OCCN(C)C)cc2)cc1")
31.9
>>> experimental_result("CC(=O)Oc1ccc(/C(=C(/C)c2ccccc2)c2ccc(OCCN3CCCC3)cc2)cc1")
7.7
>>> experimental_result("C/C(=C(/c1ccc(O)cc1)c1ccc(OCCN2CCCCC2)cc1)c1ccccc1")
0.4
>>> experimental_result("CCCC(=O)Oc1ccc(/C(=C(/C)c2ccccc2)c2ccc(OCCN3CCCC3)cc2)cc1")
27.1
>>> experimental_result("CC(=O)Oc1ccc(/C(=C(\\C)c2ccccc2)c2ccc(OCCN(C)C)cc2)cc1")
22

## Task # return IC50 for C/C(=C(/c1ccc(O)cc1)c1ccc(OCCN(C)C)cc1)c1ccccc1 , test system: Estrogen receptor (Homo sapiens, UniProt P03372)
## Result 1.3

## Task # return IC50 for CC(=O)Oc1ccc(/C(=C(/C)c2ccccc2)c2ccc(OCCN3CCCCC3)cc2)cc1 , test system: Estrogen receptor (Homo sapiens, UniProt P03372)
## Result 12.4

## Task # return IC50 for C/C(=C(/c1ccc(O)cc1)c1ccc(OCCN2CCCC2)cc1)c1ccccc1 , test system: Estrogen receptor (Homo sapiens, UniProt P03372)
## Result 0.8
